- Protocol Details: Embryotoxicity in fertilized chicken embryo at 2.5 nmol/egg
- Format: toxicity, Gallus gallus

{"Compound": "CO[C@@H]1[C@H](OC(=O)/C=C/C=C/C=C/C=C/C(=O)O)CC[C@]2(CO2)[C@H]1[C@@]1(C)O[C@@H]1CC=C(C)C [FUMAGILLIN]", "Activity": "Toxic"}
{"Compound": "C[C@H]1[C@@H](CCOC(=O)CCCC[C@H](C)O[C@@H]2O[C@@H](C)[C@H](O)C[C@H]2O)O[C@@H]2O[C@@]3(C)CC[C@H]4[C@H](C)CC[C@@H]1[C@@]24OO3", "Activity": "Toxic"}
